system-tested: protein F of hRSV strain B-1 (on RSV B-1-infected Hep2 cells and on virus) (human respiratory syncytial virus, …, UniProt P13843 26-574)
procedure-text: cell-based or functional assay
This section presents binders with their documented Neutralization B-1 IC50 values.

Consider the worked cases shown below.
binder	Neutralization B-1 IC50
Nanobody 13B4 (VHH, also called PMP13B4; PRSV13B4) VHH: EVQLVESGGGLVQAGGSLRLSCAASGFTFDDYAIGWFRQAPGKEREAVSCISSSDGSTYYADSVKGRFTISSDNAKNMVYLQMNSLKPEDTAVYYCAADLLRTAVGCLDYRGTYYPRTTMDYRGKGTLVTVSS	> 15 µM
Nanobody 1G3 (VHH, also called PMP1G3; PRSV1G3) VHH: EVQLVESGGGLVQAGGSLRLSCEASGRTYSRYGMGWFRQAPGKEREFVAAVSRLSGPRTVYADSVKGRFTISRDNAENTVYLQMNSLKPEDTAVYTCAAELTNRNSGAYYYAWAYDYWGQGTQVTVSS	> 10 µM
Nanobody 19C4 (VHH, also called PMP19C4; PRSV19C4) VHH: EVQLVESGGGLVQAGGSLRLSCAASGRSFSNYVLGWFRQAPGKEREFVAAISFRGDSAIGAPSVEGRFTISRDNAKNTGYLQMNSLVPDDTAVYYCGAGTPLNPGAYIYDWSYDYWGRGTQVTVSS	> 10 µM

[ask] What value of Neutralization B-1 IC50 has been recorded for this entry: Nanobody 1A6 (VHH, also called PMP1A6; PRSV1A6) VHH: EVQLVESGGGLVQAGGSLRLSCAASGRTFSSYAMGWFRQAPGKEREFVAAIWWSGGSTYYADSVKGRFTMSRDNAKNTVYLEMNNLKPEDTAVYYCAADTDSSNSGSYLYTWAYDYWGQGTQVTVSS
[reply] > 10 µM
